- Tested on: Vero
- test-method-notes: Concentration required to cause a microscopically detectable alteration in cell morphology in vero cell cultures.
- Type: functional
- experimental-setup: Chlorocebus sabaeus, read-out: Min cytotoxic concentration
Please respond with Met when measured MCC is strictly beneath 4 µg/mL, and with Not met in all other cases.

molecule	group
Nc1ncnc2c1c(Br)cn2[C@@H]1O[C@H](CO)[C@@H](O)[C@H]1O	Met
Nc1nccc2c1ncn2[C@@H]1C[C@H](CO)[C@H](O)C1O (stereo not given in full)	Not met
Nc1ncnc2c1cc(Br)n2C1O[C@H](CO)[C@@H](O)[C@H]1O (stereo not given in full)	Not met
N#Cc1cn([C@@H]2O[C@H](CO)[C@@H](O)[C@H]2O)c2ncnc(N)c12 [TOYOCAMYCIN]	Met
Nc1ncnc2c1c(CCCO)cn2C1O[C@H](CO)[C@@H](O)[C@H]1O (stereo not given in full)	Not met
Nc1ncnc2c1c(Cl)c(Cl)n2C1O[C@H](CO)[C@@H](O)[C@H]1O (stereo not given in full)	Not met
CCCCc1cn(C2O[C@H](CO)[C@@H](O)[C@H]2O)c2ncnc(N)c12 (stereo not given in full)	Not met
N#C/C=C/c1cn(C2O[C@H](CO)[C@@H](O)[C@H]2O)c2ncnc(N)c12 (stereo not given in full)	Not met
NC(=O)c1cn([C@@H]2O[C@H](CO)[C@@H](O)[C@H]2O)c2ncnc(N)c12 [SANGIVAMYCIN]	Met

---

- Test system: Human alphaherpesvirus 1
- test-method-notes: Concentration required to reduce HSV-1 (KOS) induced cytopathogenicity by 50% in primary rabbit kidney cell cultures.
- Type: functional
parameter: MIC (µg/mL)

compound	tested-system	unit-string	readout-relation	numeric-value
COC(C)c1cn(C2O[C@H](CO)[C@@H](O)[C@H]2O)c2ncnc(N)c12 (stereo not given in full)	Human alphaherpesvirus 1	µg/mL	=	20
Nc1ncnc2c1c(Cl)c(Cl)n2C1O[C@H](CO)[C@@H](O)[C@H]1O (stereo not given in full)	Human alphaherpesvirus 1	µg/mL	>	40
N#Cc1cn([C@@H]2O[C@H](CO)[C@@H](O)[C@H]2O)c2ncnc(N)c12 [TOYOCAMYCIN]	Human alphaherpesvirus 1	µg/mL	>	0.04
Nc1nccc2c1ncn2[C@@H]1C[C@H](CO)[C@H](O)C1O (stereo not given in full)	Human alphaherpesvirus 1	µg/mL	>	400
C/C=C/Cc1cn(C2O[C@H](CO)[C@@H](O)[C@H]2O)c2ncnc(N)c12 (stereo not given in full)	Human alphaherpesvirus 1	µg/mL	=	20

---

- System: Sindbis virus
- test-method-notes: Concentration required to reduce sindbis virus induced cytopathogenicity by 50% in vero cell cultures.
- Assay type: functional
parameter: MIC

molecule	tested-system	parameter	result
Nc1ncnc2c1c(Cl)c(Cl)n2C1O[C@H](CO)[C@@H](O)[C@H]1O (stereo partly drawn)	Sindbis virus	MIC	> 10 mg/L
CC(O)c1cn(C2O[C@H](CO)[C@@H](O)[C@H]2O)c2ncnc(N)c12 (stereo partly drawn)	Sindbis virus	MIC	7 mg/L
COC(C)c1cn(C2O[C@H](CO)[C@@H](O)[C@H]2O)c2ncnc(N)c12 (stereo partly drawn)	Sindbis virus	MIC	> 40 mg/L
NC(=O)c1ncn([C@@H]2O[C@H](CO)[C@@H](O)[C@H]2O)n1	Sindbis virus	MIC	150 mg/L
Nc1ncnc2c1c(/C=C/Br)cn2C1O[C@H](CO)[C@@H](O)[C@H]1O (stereo partly drawn)	Sindbis virus	MIC	> 1 mg/L
Nc1ncnc2c1c(Cl)cn2[C@@H]1O[C@H](CO)[C@@H](O)[C@H]1O	Sindbis virus	MIC	> 1 mg/L
Nc1ncnc2c1ccn2[C@@H]1O[C@H](CO)[C@@H](O)[C@H]1O	Sindbis virus	MIC	0.2 mg/L
Nc1ncnc2c1cc(Br)n2C1O[C@H](CO)[C@@H](O)[C@H]1O (stereo partly drawn)	Sindbis virus	MIC	> 200 mg/L
Nc1ncnc2c1c(I)cn2[C@@H]1O[C@H](CO)[C@@H](O)[C@H]1O	Sindbis virus	MIC	> 0.4 mg/L
C/C=C/Cc1cn(C2O[C@H](CO)[C@@H](O)[C@H]2O)c2ncnc(N)c12 (stereo partly drawn)	Sindbis virus	MIC	> 40 mg/L
Nc1ncnc2c1c(Br)c(Br)n2C1O[C@H](CO)[C@@H](O)[C@H]1O (stereo partly drawn)	Sindbis virus	MIC	> 10 mg/L
N#C/C=C/c1cn(C2O[C@H](CO)[C@@H](O)[C@H]2O)c2ncnc(N)c12 (stereo partly drawn)	Sindbis virus	MIC	> 40 mg/L
Nc1nccc2c1ncn2[C@@H]1C[C@H](CO)[C@H](O)C1O (stereo partly drawn)	Sindbis virus	MIC	20 mg/L
Nc1ncnc2c1c(CCCO)cn2C1O[C@H](CO)[C@@H](O)[C@H]1O (stereo partly drawn)	Sindbis virus	MIC	> 10 mg/L
NC(=O)c1cn([C@@H]2O[C@H](CO)[C@@H](O)[C@H]2O)c2ncnc(N)c12	Sindbis virus	MIC	0.2 mg/L
Nc1ncnc2c1c(Br)cn2[C@@H]1O[C@H](CO)[C@@H](O)[C@H]1O	Sindbis virus	MIC	> 0.4 mg/L
CCCCc1cn(C2O[C@H](CO)[C@@H](O)[C@H]2O)c2ncnc(N)c12 (stereo partly drawn)	Sindbis virus	MIC	> 40 mg/L
N#Cc1cn([C@@H]2O[C@H](CO)[C@@H](O)[C@H]2O)c2ncnc(N)c12	Sindbis virus	MIC	> 0.01 mg/L

---

The reader will find reported MIC values listed item by item below.
- Test system: Human alphaherpesvirus 1
- test-method-notes: Concentration required to reduce HSV-1 (KOS) induced cytopathogenicity by 50% in primary rabbit kidney cell cultures.
- Type: functional
parameter: MIC (µg/mL)

molecule	tested-system	readout-relation	numeric-value
CCCCc1cn(C2O[C@H](CO)[C@@H](O)[C@H]2O)c2ncnc(N)c12 (stereo not given in full)	Human alphaherpesvirus 1	>	40
Nc1ncnc2c1c(CCCO)cn2C1O[C@H](CO)[C@@H](O)[C@H]1O (stereo not given in full)	Human alphaherpesvirus 1	=	7
NC(=O)c1ncn([C@@H]2O[C@H](CO)[C@@H](O)[C@H]2O)n1	Human alphaherpesvirus 1	>	400
Nc1ncnc2c1c(Cl)cn2[C@@H]1O[C@H](CO)[C@@H](O)[C@H]1O	Human alphaherpesvirus 1	>	1
CC(O)c1cn(C2O[C@H](CO)[C@@H](O)[C@H]2O)c2ncnc(N)c12 (stereo not given in full)	Human alphaherpesvirus 1	=	2

---

The reader will find reported MCC values listed item by item below.
- System: HeLa
- test-method-notes: Concentration required to cause a microscopically detectable alteration in cell morphology in HeLa cell cultures.
- Type: functional
- experimental-setup: Homo sapiens, read-out: Min cytotoxic concentration
parameter: MCC

molecule	result
NC(=O)c1ncn([C@@H]2O[C@H](CO)[C@@H](O)[C@H]2O)n1	> 400 µg/mL
CCCCc1cn(C2O[C@H](CO)[C@@H](O)[C@H]2O)c2ncnc(N)c12 (some centres undefined)	> 40 µg/mL
Nc1nccc2c1ncn2[C@@H]1C[C@H](CO)[C@H](O)C1O (some centres undefined)	> 400 µg/mL
N#Cc1cn([C@@H]2O[C@H](CO)[C@@H](O)[C@H]2O)c2ncnc(N)c12	> 0.4 µg/mL

---

The reader will find reported MIC values listed item by item below.
- Tested on: Human alphaherpesvirus 1
- test-method-notes: Concentration required to reduce HSV-1 (KOS) induced cytopathogenicity by 50% in primary rabbit kidney cell cultures.
- Type: functional

molecule	MIC
Nc1ncnc2c1c(Br)c(Br)n2C1O[C@H](CO)[C@@H](O)[C@H]1O (some centres undefined)	> 100 µg/mL
Nc1ncnc2c1c(Br)cn2[C@@H]1O[C@H](CO)[C@@H](O)[C@H]1O	> 1 µg/mL
Nc1ncnc2c1c(/C=C/Br)cn2C1O[C@H](CO)[C@@H](O)[C@H]1O (some centres undefined)	> 1 µg/mL
Nc1ncnc2c1cc(Br)n2C1O[C@H](CO)[C@@H](O)[C@H]1O (some centres undefined)	> 400 µg/mL

Origin of the recorded values: ChEMBL document CHEMBL1122581
